Numbers sourced from PubChem BioAssay AID504841.

Assayed system: ATP-dependent DNA helicase Q1 (Homo sapiens)
Protocol text: Confirmation qHTS Assay for Inhibitors of RecQ-Like Dna Helicase 1 (RECQ1) - Round 2 Cherry Picks; note: nearly all actives have a fitted effect of over 50% in size; note: potency is the fitted concentration of half-maximal effect
Condition notes: recombinant RECQ1 DNA unwinding, red fluorescence; series mostly up to 119 µM
Description: Survival of cells and the faithful propagation of the genome depend on elaborate mechanisms of detecting and repairing DNA damage. […] The validation assay was a fluorescence quenching based kinetic qHTS for RECQ1 Helicase DNA unwinding. The activity was measured as ATP-dependent separation of a 20-bp DNA duplex extended by 30-nt single-stranded tails (forked duplex). […] Strand separation results in an increase in the fluorescence of TAMRA (excitation 525 nm, emission 598 nm). […]
Screen size: about 1,100 compounds; about 160 (15%) were called active. About 36% were inconclusive and are not listed. A selection follows.

{"Compound": "Oc1c(C=Nc2cccc3nsnc23)ccc2ccccc12", "Potency": "39.8 µM (active)"}
{"Compound": "Cc1ccc(Cc2cnc(N)s2)o1", "Potency": "inactive"}
{"Compound": "c1ccc2c(NC3C4CC5CC(C4)CC3C5)nc(N3CCOCC3)nc2c1 (centres undefined)", "Potency": "inactive"}
{"Compound": "COC(=O)Cc1cc(=O)n(-c2nc3ccccc3s2)[nH]1", "Potency": "inactive"}
